Below, each of the molecules is paired with its reported Act. (%): activation rate of test substance value.
# STUDY_SYSTEM: human OX2R (Homo sapiens)
# Construct: expressed in transfected cells
# Sequence (O43614 whole entry): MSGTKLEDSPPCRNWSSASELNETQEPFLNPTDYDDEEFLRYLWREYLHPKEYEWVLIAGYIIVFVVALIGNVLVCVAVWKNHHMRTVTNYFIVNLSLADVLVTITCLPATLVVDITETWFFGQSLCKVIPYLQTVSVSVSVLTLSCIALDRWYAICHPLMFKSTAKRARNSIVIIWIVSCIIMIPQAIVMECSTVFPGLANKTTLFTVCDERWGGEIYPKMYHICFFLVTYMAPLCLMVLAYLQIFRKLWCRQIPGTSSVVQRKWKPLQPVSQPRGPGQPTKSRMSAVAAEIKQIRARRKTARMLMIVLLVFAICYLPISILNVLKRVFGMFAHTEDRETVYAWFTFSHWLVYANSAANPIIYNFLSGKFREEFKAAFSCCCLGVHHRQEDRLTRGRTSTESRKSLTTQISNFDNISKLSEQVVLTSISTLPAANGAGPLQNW
# PROCEDURE_TEXT: Measurement of OX2R agonist activity (intracellular calcium concentration change, Fluo4-AM, FDSS 7000)
# Type: cell-based
# TEST_SETTINGS: compound concentration 10 μM; human OX2R-expressing CHO-K1 cells; 1 μM human orexin A peptide = 100%, medium alone = 0%
MEASUREMENT_KIND: Act. (%): activation rate of test substance

MOLECULE | VALUE_MEASURED
CO[C@H]1C[C@](Cc2cccc(-c3ncc(F)cn3)c2)(C(=O)N(C)OC)C[C@H]1NS(C)(=O)=O | 88%
CON(C)C(=O)[C@@]1(Cc2cccc(-c3ncc(F)cn3)c2)CC[C@H](NS(C)(=O)=O)C1 (relative stereo) | 99%
CON(C)C(=O)[C@@]1(Cc2ccc(Cl)c(-c3ncc(F)cn3)c2)CC[C@H](NS(C)(=O)=O)C1 | 88%
CCS(=O)(=O)N[C@@H]1C[C@@](Cc2ccc(F)c(-c3ncc(F)cn3)c2)(C(=O)N(C)OC)C[C@@H]1F (relative stereo) | 84%
CON(C)C(=O)[C@@]1(Cc2ccc(C)c(-c3ncc(F)cn3)c2)CC[C@H](NS(C)(=O)=O)C1 (relative stereo) | 87%
CON(C)C(=O)[C@@]1(Cc2ccc(O)c(-c3ncc(F)cn3)c2)C[C@H](F)[C@H](NS(C)(=O)=O)C1 (relative stereo) | 91%

Ref: patent US20260124201A1
